B1: EPB41L3 (parent)
chain: SELGDYDPDECGSDYISEFRFAPN

# Variants of: B1
# Method: protein stability index of a GFP-peptide fusion (GPS, HEK-293T) (PSI 1-6); higher = more stable;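 note: lentivirally expressed fusions sorted by FACS into six bins by GFP to DsRed ratio, PSI derived from sequencing read proportions per bin multiplied by bin number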
# Measurement Context: c terminus: a fixed tail appended
Is protein stability index at least 2? Then MET. If not, NOT MET.

Asked: Tell me whether protein stability index is at least 2 here: S1P
Given back: NOT MET

Asked: Tell me whether protein stability index is at least 2 here: S1W
Given back: NOT MET

Asked: Tell me whether protein stability index is at least 2 here: F21Y
Given back: MET

Asked: Tell me whether protein stability index is at least 2 here: C11E
Given back: MET

Asked: Tell me whether protein stability index is at least 2 here: S17N
Given back: MET

Asked: Tell me whether protein stability index is at least 2 here: D7V
Given back: NOT MET

Asked: Tell me whether protein stability index is at least 2 here: Y15A
Given back: MET

Asked: Tell me whether protein stability index is at least 2 here: D7L
Given back: NOT MET

Asked: Tell me whether protein stability index is at least 2 here: C11V
Given back: NOT MET

Asked: Tell me whether protein stability index is at least 2 here: S1E
Given back: MET

Asked: Tell me whether protein stability index is at least 2 here: P8E
Given back: MET

Asked: Tell me whether protein stability index is at least 2 here: D7H
Given back: MET

Asked: Tell me whether protein stability index is at least 2 here: S1F
Given back: NOT MET

Asked: Tell me whether protein stability index is at least 2 here: R20G
Given back: MET

Asked: Tell me whether protein stability index is at least 2 here: Y15Q
Given back: MET
